Biological target: GFP [GFP: P42212]
Experiment: SPR; GFP immobilised by EDC/NHS coupling (ProteOn XPR36, GLC chip, 5 ug/ml in 10 mM sodium acetate pH 5.0; or Biacore 8K, CM5 chip, 5 ug/ml, pH 5.5); nanobody as analyte; 20 mM Na-Hepes pH 7.4, 150 mM NaCl, 0.05% Tween 20; Langmuir binding model
Quick list: Kd per entry.

| binder | relation | Kd / nM |
| --- | --- | --- |
| LaG94-1 (VHH) VHH: QVQLVESGGGLVQTGDSLRLSCRASGLTLSVYSTGWFRQAPGKEHENVAWISRSGDETYYEDSVKGRFTISRDNAKNTVYLQMNDLKPEDMARYYCAASNRGRTTAWNLYIYRGQGTQVTVS | = | 0.016 |
| LaG94-10 (VHH) VHH: QVQLVESGGGLVQAGGSLRLSCAASGLTLRVYDVTWFRQAPGKEREFVGTVNRNGVVTDYADSVKGRFTISRDNPKNTIYLQMNSLKPEDTAVYYCAAKTRPKLSTLWDEYIYRGQGTQVTVS | = | 0.009 |
| LaG94-18 (VHH) VHH: QVQLVESGGGLVQAGGSLRLSCVASGRTFSTSAMAWWRQAPGKEREFVAAISWNVGTTYYPDSVKGRFTISRDKAQNAVYLQMNSLKPEDTAVYYCAARVTGYFGDQVRRADDYRYWGQGTQVTVS | = | 0.92 |
| LaG94-5 (VHH) VHH: QVQLAESGGGLVQAGGSLRLSCAASGRTFAMGWFRRAPGKEREFVASMSRSGLDTHYADSVKGRFTISRDNALNTVYLQTDSLKPEDTGDYFCAVGLRYWSLSGDYIRREKYDVWGQGTQVTVS | < | 0.00089 |
